assay_system: Phosphatidylinositol 4,5-bisphosphate 3-kinase catalytic subunit delta isoform (Homo sapiens, UniProt O00329)
Sequence (O00329 whole entry): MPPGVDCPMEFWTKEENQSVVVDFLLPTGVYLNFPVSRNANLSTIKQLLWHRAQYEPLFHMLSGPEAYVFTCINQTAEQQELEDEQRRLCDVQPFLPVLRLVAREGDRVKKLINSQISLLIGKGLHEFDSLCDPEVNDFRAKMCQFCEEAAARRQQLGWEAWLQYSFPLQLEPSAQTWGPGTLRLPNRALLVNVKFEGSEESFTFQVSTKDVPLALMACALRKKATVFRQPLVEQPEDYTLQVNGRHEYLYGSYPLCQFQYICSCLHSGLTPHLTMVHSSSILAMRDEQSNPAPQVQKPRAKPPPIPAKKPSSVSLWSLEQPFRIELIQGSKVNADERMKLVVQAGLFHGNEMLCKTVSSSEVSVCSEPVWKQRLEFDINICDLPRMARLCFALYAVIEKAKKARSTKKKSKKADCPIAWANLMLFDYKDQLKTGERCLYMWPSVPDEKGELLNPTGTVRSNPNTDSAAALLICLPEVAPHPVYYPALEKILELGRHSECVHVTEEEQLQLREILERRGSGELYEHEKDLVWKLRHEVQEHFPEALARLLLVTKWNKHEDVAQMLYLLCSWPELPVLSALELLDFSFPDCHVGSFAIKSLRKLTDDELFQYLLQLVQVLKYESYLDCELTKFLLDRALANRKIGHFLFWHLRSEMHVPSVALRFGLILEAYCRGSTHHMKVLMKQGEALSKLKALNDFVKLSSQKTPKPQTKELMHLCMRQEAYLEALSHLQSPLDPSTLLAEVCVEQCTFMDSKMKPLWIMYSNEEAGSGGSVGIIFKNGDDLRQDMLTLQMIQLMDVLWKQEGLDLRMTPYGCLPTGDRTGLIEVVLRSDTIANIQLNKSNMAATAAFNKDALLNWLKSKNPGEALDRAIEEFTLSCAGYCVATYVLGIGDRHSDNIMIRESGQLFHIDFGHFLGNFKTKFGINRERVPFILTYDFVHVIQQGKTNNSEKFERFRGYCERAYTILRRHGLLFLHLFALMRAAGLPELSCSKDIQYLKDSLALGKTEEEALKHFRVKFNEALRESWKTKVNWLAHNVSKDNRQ
procedure_summary: Inhibition of p110delta (unknown origin) assessed as decrease in ATP consumption after 60 mins by Kinase-Glo assay
Parameter: pIC50. Scope: all listed entries.
Please note pIC50 is a logarithmic value: minus log10 of concentration in mol/L. Answer with that number alone.

smiles_data: O=c1nc(N2CCOCC2)oc2c(-c3ccccc3)c3ccccc3cc12
numeric_result: 5.11

Query: Respond only with pIC50 recorded for COc1ccc(-c2c3ccccc3cc3c(=O)nc(N4CCOCC4)oc23)cc1
Reply: 5.25

Entry source: ChEMBL document CHEMBL3864148
